Attribution: ChEMBL document CHEMBL3992537

SYSTEM_UNDER_TEST: UniProtKB Q9Y286
Sequence (Q9Y286 whole entry, the tested form may be a part): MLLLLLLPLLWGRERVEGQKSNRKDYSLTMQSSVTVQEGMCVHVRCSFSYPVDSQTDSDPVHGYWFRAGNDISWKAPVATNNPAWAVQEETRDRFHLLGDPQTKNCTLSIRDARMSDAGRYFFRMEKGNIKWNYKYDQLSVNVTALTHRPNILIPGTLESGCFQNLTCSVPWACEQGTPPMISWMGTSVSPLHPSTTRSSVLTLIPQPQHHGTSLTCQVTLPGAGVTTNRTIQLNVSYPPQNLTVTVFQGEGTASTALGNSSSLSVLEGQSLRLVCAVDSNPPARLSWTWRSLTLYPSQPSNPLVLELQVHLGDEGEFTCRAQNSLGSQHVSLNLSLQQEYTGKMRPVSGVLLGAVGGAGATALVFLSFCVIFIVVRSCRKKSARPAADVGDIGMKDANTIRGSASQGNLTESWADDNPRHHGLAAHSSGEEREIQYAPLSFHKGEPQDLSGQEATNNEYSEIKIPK
ASSAY_NAME: Binding affinity to human IgG1-fused Siglec-7-Fc assessed as inhibition of Siglec-7-Fc binding to RBC preincubated for 10 mins followed by RBC addition measured after 20 mins by FACS analysis
pIC50 listing for selected compounds.
Reminder that pIC50 is minus the log10 of a molar concentration.

COMPOUND	pIC50
CC(=O)N[C@H]1[C@H]([C@H](O)[C@H](O)CNS(C)(=O)=O)O[C@@](OCCCn2cc(-c3ccc(-c4ccccc4)cc3)nn2)(C(=O)[O-])C[C@@H]1O.[Na+]	5.59
CC(=O)N[C@H]1[C@H]([C@H](O)[C@H](O)CO)O[C@@](OCCCn2cc(-c3ccc(-c4ccccc4)cc3)nn2)(C(=O)O)C[C@@H]1O	4.28

Memo: COC1(C(=O)O)C[C@H](O)[C@@H](NC(C)=O)[C@H]([C@H](O)[C@H](O)CO)O1 (some centres undefined) , reported pIC50: 2.09

Memo: CCS(=O)(=O)NC[C@@H](O)[C@@H](O)[C@@H]1O[C@@](OCCCn2cc(-c3ccc(-c4ccccc4)cc3)nn2)(C(=O)O)C[C@H](O)[C@H]1NC(C)=O , reported pIC50: 5.80
